# Tested on: NCI-H1876 tumor spheroid viability
# method-description: Anticancer human tumor NCI-H1876 cell line growth inhibition; active = viability on the fitted dose curve at most 10% of control; inactive = the rest;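 also: spheroids exposed to compounds for seven days before the viability read; percent of DMSO vehicle control viability so 100% = vehicle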
# test-parameters: second compound 100 µM; first compound 3 µM; spheroids with HUVEC and MSC
Response enum: label 1 = active, label 0 = inactive

Would you mind telling me which call this test gave CNCc1ccc(-c2cc(-c3nc(-c4ccc(S(=O)(=O)C(C)C)cc4)cnc3N)on2)cc1 + Cn1nnc2c(C(N)=O)ncn2c1=O ?
label 1

Moving on to the next compound: Cn1ncnc1[C@H]1c2n[nH]c(=O)c3cc(F)cc(c23)N[C@@H]1c1ccc(F)cc1 + Cn1nnc2c(C(N)=O)ncn2c1=O
label 0

Same read-out for Cc1sc2c(c1C)C(c1ccc(Cl)cc1)=NC(CC(=O)Nc1ccc(O)cc1)c1nnc(C)n1-2 (centres undefined) + Cn1nnc2c(C(N)=O)ncn2c1=O ?
label 1

What do we get for O=C(c1cc(Cc2n[nH]c(=O)c3ccccc23)ccc1F)N1CCN(C(=O)C2CC2)CC1 + Cn1nnc2c(C(N)=O)ncn2c1=O ?
label 0
